Sourced from patent US5789434A

System name: MMP-3 (Homo sapiens)
Construct: Truncated Prostromelysin-257 was expressed in a soluble form in E.coli; made in house; host or cells: E. coli
Sequence (P08254 100-274 limits assumed): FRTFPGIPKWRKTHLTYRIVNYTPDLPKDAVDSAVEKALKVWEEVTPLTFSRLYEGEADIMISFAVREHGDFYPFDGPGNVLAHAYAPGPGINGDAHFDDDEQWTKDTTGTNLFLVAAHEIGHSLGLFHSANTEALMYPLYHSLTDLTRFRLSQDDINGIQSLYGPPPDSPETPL
Protocol: Primary Thiopeptilide MMP-3 Inhibition Assay
Format: biochemical
Reported conditions: at 5 μM; read-out: MMP-3 Thiopep. % inhibition
Where a name gives a salt, the structure may show the parent alone.

# Compound, inhibition at 5 µM / %
data = [
    ("CCC(C)(CC(=O)O)CC(=O)c1ccc(-c2ccc(Cl)cc2)cc1 (stereo not shown) [Example 335]", 55),
    ("O=C(O)/C=C/C(=O)c1ccc(Oc2ccc(Cl)cc2)cc1 [Example 30, reference compound]", 8),
    ("CCN(CC)CCC(CC(=O)c1ccc(-c2ccc(Cl)cc2)cc1)C(=O)O (stereo not shown) [Example 264, hydrochloride]", 48),
    ("O=C(O)c1ccccc1C(=O)c1ccc(-c2ccc(Cl)cc2)cc1 [Example 287]", 26),
]

====

System name: MMP-9 (Homo sapiens)
Construct: from tissue; host or cells: human polymorphonuclear leukocytes (PMN) from whole blood (New York Blood Center), PMA-stimulated supernatant
Sequence (P14780 107-707 limits assumed): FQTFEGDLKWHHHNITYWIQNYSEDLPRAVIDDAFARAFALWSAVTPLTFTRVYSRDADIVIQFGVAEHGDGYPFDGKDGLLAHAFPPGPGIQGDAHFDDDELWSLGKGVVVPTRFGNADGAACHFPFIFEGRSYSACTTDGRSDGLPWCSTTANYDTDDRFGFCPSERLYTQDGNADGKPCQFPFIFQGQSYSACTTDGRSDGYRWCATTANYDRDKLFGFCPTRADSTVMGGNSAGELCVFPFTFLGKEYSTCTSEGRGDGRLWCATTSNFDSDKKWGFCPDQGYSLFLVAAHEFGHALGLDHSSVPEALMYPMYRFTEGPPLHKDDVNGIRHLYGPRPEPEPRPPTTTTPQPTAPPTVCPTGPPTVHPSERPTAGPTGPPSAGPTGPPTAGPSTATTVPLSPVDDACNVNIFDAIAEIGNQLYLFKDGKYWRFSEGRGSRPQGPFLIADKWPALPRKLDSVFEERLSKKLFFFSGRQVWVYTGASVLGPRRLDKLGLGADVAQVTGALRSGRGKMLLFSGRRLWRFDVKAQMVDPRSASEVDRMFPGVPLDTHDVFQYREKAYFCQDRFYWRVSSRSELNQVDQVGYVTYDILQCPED
Protocol: Automated MMP Profiling Assay, MMP-9 fluorogenic
Format: biochemical
Reported conditions: at 5 μM
Experimental readout: inhibition at 5 µM (%)

# Compound, Experimental readout, Endpoint value
measured = [
    ("O=C(O)[C@@H]1CN(Cc2ccccc2)C[C@H]1C(=O)c1ccc(-c2ccc(Cl)cc2)cc1 (relative stereo)", "inhibition at 5 µM", 6),
    ("CCCCCOc1ccc(-c2ccc(C(=O)C3CCC=C3C(=O)O)cc2)cc1 (stereo not drawn)", "inhibition at 5 µM", 40),
    ("CC(=O)O[C@H]1C[C@@H](C(=O)c2ccc(-c3ccc(Cl)cc3)cc2)[C@H]1C(=O)O (relative stereo)", "inhibition at 5 µM", 38),
    ("CC(C)(C)OC(=O)Nc1ccc(-c2ccc(C(=O)CC(CCc3ccccc3)C(=O)O)cc2)cc1 (stereo not drawn)", "inhibition at 5 µM", 0),
    ("O=C(O)[C@H]1[C@@H](Sc2ccccc2)CC[C@@H]1C(=O)c1ccc(-c2ccc(Cl)cc2)cc1 (relative stereo)", "inhibition at 5 µM", 20),
    ("O=C(CC(CCCc1ccccc1)C(=O)O)c1ccc(-c2ccc(OCc3ccccn3)cc2)cc1 (stereo not drawn)", "inhibition at 5 µM", 26),
    ("COc1ccc(COc2ccc(-c3ccc(C(=O)CC(CCCc4ccccc4)C(=O)O)cc3)cc2)cc1 (stereo not drawn)", "inhibition at 5 µM", 37),
    ("O=C(CC(CCCc1ccccc1)C(=O)O)c1ccc(-c2ccc(C(=O)O)o2)cc1 (stereo not drawn)", "inhibition at 5 µM", 0),
    ("CCCCCCCCCCOc1ccc(-c2ccc(C(=O)CC(CCCc3ccccc3)C(=O)O)cc2)cc1 (stereo not drawn)", "inhibition at 5 µM", 4),
    ("CCCCCOc1ccc(-c2ccc(C(=O)CC(CCCc3ccccc3)C(=O)O)cc2)cn1 (stereo not drawn)", "inhibition at 5 µM", 24),
    ("CCCCCOc1ccc(-c2ccc(C(=O)CC(CCc3cccc(I)c3)C(=O)O)cc2)cc1 (stereo not drawn)", "inhibition at 5 µM", 8),
    ("CCCCCOc1ccc(-c2ccc(C(=O)C[C@@H](CCCc3ccccc3)C(=O)O)cc2)cc1", "inhibition at 5 µM", 0),
    ("Cc1ccc(COc2ccc(-c3ccc(C(=O)CC(CCCc4ccccc4)C(=O)O)cc3)cc2)cc1 (stereo not drawn)", "inhibition at 5 µM", 28),
    ("Cc1ccc(/C=C/[C@@H]2CC[C@H](C(=O)c3ccc(-c4ccc(Cl)cc4)cc3)[C@H]2C(=O)O)cc1 (relative stereo)", "inhibition at 5 µM", 37),
    ("CC(=O)O[C@H]1C[C@H](C(=O)c2ccc(-c3ccc(Cl)cc3)cc2)[C@H]1C(=O)O (relative stereo)", "inhibition at 5 µM", 44),
    ("O=C(O)[C@@H]1[C@@H](C(=O)c2ccc(-c3ccc(Cl)cc3)cc2)[C@H]2C=C[C@@H]1C2 (relative stereo)", "inhibition at 5 µM", 30),
    ("O=C(c1ccc(-c2ccc(Cl)cc2)cc1)[C@@H]1CCN(C(=O)OCc2ccccc2)[C@H]1C(=O)O", "inhibition at 5 µM", 23),
    ("CCCCCCc1ccc(-c2ccc(CCC(CCCc3ccccc3)C(=O)O)cc2)cc1 (stereo not drawn)", "inhibition at 5 µM", 4),
    ("CC(=O)O[C@@H]1C[C@@H](C(=O)c2ccc(-c3ccc(Cl)cc3)cc2)[C@H]1C(=O)O (relative stereo)", "inhibition at 5 µM", 15),
    ("O=C(CC(CCCc1ccccc1)C(=O)O)c1ccc(-c2cccnc2)cc1 (stereo not drawn)", "inhibition at 5 µM", 7),
    ("O=C(CC(CCCc1ccccc1)C(=O)O)c1ccc(-c2ccc(/C=C\\c3ccccc3)cc2)cc1 (stereo not drawn)", "inhibition at 5 µM", 4),
    ("CCCC/C=C\\c1ccc(-c2ccc(C(=O)CC(CCCc3ccccc3)C(=O)O)cc2)cc1 (stereo not drawn)", "inhibition at 5 µM", 14),
    ("O=C(O)C1=CCCC1C(=O)c1ccc(-c2ccc(Cl)cc2)cc1 (stereo not drawn)", "inhibition at 5 µM", 3),
    ("O=C(CC(CCCc1ccccc1)C(=O)O)c1ccc(-c2ccc(OCc3ccc(F)cc3)cc2)cc1 (stereo not drawn)", "inhibition at 5 µM", 34),
    ("CCCCCCOc1ccc(-c2ccc(C(=O)C3CCC=C3C(=O)O)cc2)cc1 (stereo not drawn)", "inhibition at 5 µM", 16),
    ("CC(=O)NC(CC(=O)c1ccc(-c2ccc(Cl)cc2)cc1)C(=O)O (stereo not drawn)", "inhibition at 5 µM", 37),
    ("O=C(CC(CCc1cccc(I)c1)C(=O)O)c1ccc(-c2ccc(OCc3ccccc3)cc2)cc1 (stereo not drawn)", "inhibition at 5 µM", 18),
    ("CC(C)(C)CC(=O)Nc1ccc(-c2ccc(C(=O)CC(CCc3ccccc3)C(=O)O)cc2)cc1 (stereo not drawn)", "inhibition at 5 µM", 0),
    ("CCCCCOc1ccc(-c2ccc(C(=O)[C@H]3CC[C@@H](Sc4ccccc4)[C@@H]3C(=O)O)cc2)cc1 (single isomer, unassigned)", "inhibition at 5 µM", 6),
    ("O=C(O)[C@H]1[C@H](C(=O)c2ccc(-c3ccc(Cl)cc3)cc2)[C@H]2C=C[C@@H]1C2 (relative stereo)", "inhibition at 5 µM", 24),
]
